# MEASURED_ON: D-CGRP (biotinylated, all-D alpha-calcitonin gene-related peptide) (Rattus norvegicus)
# Sequence: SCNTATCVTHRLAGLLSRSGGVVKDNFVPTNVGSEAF
# CONDITIONS: 2'-F pyrimidines; unit uM, probably misprint for nM; method not specified here (Biacore/ITC in Ex. 1)
RECORDED_METRIC: Kd

Problem: Look at this sequence and give its reported Kd. GGAGCUCAGCCUUCACUGCGAAGUGACGCACGUAUGAUAGUUUCCAUUUUGGACUCCUGGGCACCACGGUCGGAUCCAC [clone 666]
Result: 10 µM

* * *

# MEASURED_ON: D-CGRP (biotinylated, all-D alpha-calcitonin gene-related peptide) (Rattus norvegicus)
# Sequence: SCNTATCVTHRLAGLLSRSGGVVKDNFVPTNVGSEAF
# CONDITIONS: 2'-F pyrimidines; 51mer
RECORDED_METRIC: Kd (nM)
Give bare numbers, in nM.

Problem: Write down the reported Kd of GGCAGCCUUCCUGCAGGACGCACGUAUGAUAGUUUCCUUUGGACUCCUGCC [732_100] , test system: D-CGRP (biotinylated, all-D alpha-calcitonin gene-related peptide) (Rattus norvegicus).
Result: 75000

These data points were gathered from patent US20060183700A1.
